- Test system: 677734-321-R-J1-PDC complex spheroid viability
- Measurement Description: Anticancer human tumor 677734-321-R-J1-PDC patient-derived soft tissue sarcoma cell line growth inhibition [POLQ]
- Condition Set: second compound 0.316 µM; first compound 0.00316 µM; active compounds read low
Measurement Label: viability, T/C

Example entries begin here.
{"Molecule": "Cn1ncnc1[C@H]1c2n[nH]c(=O)c3cc(F)cc(c23)N[C@@H]1c1ccc(F)cc1 + Cc1cccc(N(C)C(=O)C2C(O)CCN2c2nc(C)cc(C(F)(F)F)c2C#N)c1", "viability, T/C": "102%"}
{"Molecule": "COc1cccc(OCCCN)c1-c1cc(Nc2cnc(C#N)cn2)n[nH]1 + Cc1cccc(N(C)C(=O)C2C(O)CCN2c2nc(C)cc(C(F)(F)F)c2C#N)c1", "viability, T/C": "84.1%"}
{"Molecule": "CC[C@@]1(O)C(=O)OCc2c1cc1n(c2=O)Cc2cc3c(CN(C)C)c(O)ccc3nc2-1 + COC1C(OC(N)=O)C(O)C(Oc2ccc3c(O)c(NC(=O)c4ccc(O)c(CC=C(C)C)c4)c(=O)oc3c2C)OC1(C)C", "viability, T/C": "94.2%"}
{"Molecule": "CCc1c2c(nc3ccc(O)cc13)-c1cc3c(c(=O)n1C2)COC(=O)[C@]3(O)CC + COC1C(OC(N)=O)C(O)C(Oc2ccc3c(O)c(NC(=O)c4ccc(O)c(CC=C(C)C)c4)c(=O)oc3c2C)OC1(C)C", "viability, T/C": "28.4%"}
{"Molecule": "C=CCn1c(=O)c2cnc(Nc3ccc(N4CCN(C)CC4)cc3)nc2n1-c1cccc(C(C)(C)O)n1 + Cc1cccc(N(C)C(=O)C2C(O)CCN2c2nc(C)cc(C(F)(F)F)c2C#N)c1", "viability, T/C": "96.7%"}

Param item = CC[C@@]1(O)C(=O)OCc2c1cc1n(c2=O)Cc2cc3c(CN(C)C)c(O)ccc3nc2-1 + Cc1cccc(N(C)C(=O)C2C(O)CCN2c2nc(C)cc(C(F)(F)F)c2C#N)c1 ; retrieve measured viability, T/C.
100%

Param item = COc1cccc(OCCCN)c1-c1cc(Nc2cnc(C#N)cn2)n[nH]1 + Nc1ccc(C#CCN(C(=O)Cc2ncc(C(F)(F)F)cc2C(F)(F)F)c2ccc(F)cc2)nn1 ; retrieve measured viability, T/C.
77%

Param item = C=CCn1c(=O)c2cnc(Nc3ccc(N4CCN(C)CC4)cc3)nc2n1-c1cccc(C(C)(C)O)n1 + COC1C(OC(N)=O)C(O)C(Oc2ccc3c(O)c(NC(=O)c4ccc(O)c(CC=C(C)C)c4)c(=O)oc3c2C)OC1(C)C ; retrieve measured viability, T/C.
119%

Param item = CCc1c2c(nc3ccc(O)cc13)-c1cc3c(c(=O)n1C2)COC(=O)[C@]3(O)CC + Cc1cccc(N(C)C(=O)C2C(O)CCN2c2nc(C)cc(C(F)(F)F)c2C#N)c1 ; retrieve measured viability, T/C.
28%

Param item = CCc1c2c(nc3ccc(O)cc13)-c1cc3c(c(=O)n1C2)COC(=O)[C@]3(O)CC + Nc1ccc(C#CCN(C(=O)Cc2ncc(C(F)(F)F)cc2C(F)(F)F)c2ccc(F)cc2)nn1 ; retrieve measured viability, T/C.
24.3%

Param item = C=CCn1c(=O)c2cnc(Nc3ccc(N4CCN(C)CC4)cc3)nc2n1-c1cccc(C(C)(C)O)n1 + Nc1ccc(C#CCN(C(=O)Cc2ncc(C(F)(F)F)cc2C(F)(F)F)c2ccc(F)cc2)nn1 ; retrieve measured viability, T/C.
119%

Param item = COc1cccc(OCCCN)c1-c1cc(Nc2cnc(C#N)cn2)n[nH]1 + COC1C(OC(N)=O)C(O)C(Oc2ccc3c(O)c(NC(=O)c4ccc(O)c(CC=C(C)C)c4)c(=O)oc3c2C)OC1(C)C ; retrieve measured viability, T/C.
97.3%

Param item = CC[C@@]1(O)C(=O)OCc2c1cc1n(c2=O)Cc2cc3c(CN(C)C)c(O)ccc3nc2-1 + Nc1ccc(C#CCN(C(=O)Cc2ncc(C(F)(F)F)cc2C(F)(F)F)c2ccc(F)cc2)nn1 ; retrieve measured viability, T/C.
90.4%

Param item = Cn1ncnc1[C@H]1c2n[nH]c(=O)c3cc(F)cc(c23)N[C@@H]1c1ccc(F)cc1 + COC1C(OC(N)=O)C(O)C(Oc2ccc3c(O)c(NC(=O)c4ccc(O)c(CC=C(C)C)c4)c(=O)oc3c2C)OC1(C)C ; retrieve measured viability, T/C.
98.5%

Param item = Cn1ncnc1[C@H]1c2n[nH]c(=O)c3cc(F)cc(c23)N[C@@H]1c1ccc(F)cc1 + Nc1ccc(C#CCN(C(=O)Cc2ncc(C(F)(F)F)cc2C(F)(F)F)c2ccc(F)cc2)nn1 ; retrieve measured viability, T/C.
109%

###

- System: 677734-321-R-J1-PDC complex spheroid viability
- Measurement Description: Anticancer human tumor 677734-321-R-J1-PDC cell line growth inhibition [POLQ]; active = viability on the fitted dose curve at most 10% of control; inactive = the rest;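 note: spheroids exposed to compounds for one week; 100% = vehicle DMSO treated spheroids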
- Condition Set: second compound 1 µM; first compound 0.1 µM
Hi there, use one of these labels in your reply, thanks! active, inactive

{"Compound": "CC1COCCN1c1cc(-c2ccnn2C)c2ccnc(-c3ccn[nH]3)c2n1 (stereo not given) + Nc1ccc(C#CCN(C(=O)Cc2ncc(C(F)(F)F)cc2C(F)(F)F)c2ccc(F)cc2)nn1", "Label Value": "inactive"}
{"Compound": "O=C(c1cc(Cc2n[nH]c(=O)c3ccccc23)ccc1F)N1CCN(C(=O)C2CC2)CC1 + COC1C(OC(N)=O)C(O)C(Oc2ccc3c(O)c(NC(=O)c4ccc(O)c(CC=C(C)C)c4)c(=O)oc3c2C)OC1(C)C", "Label Value": "inactive"}
{"Compound": "CC1COCCN1c1cc(C2(S(C)(=N)=O)CC2)nc(-c2ccnc3[nH]ccc23)n1 (stereo not given) + Cc1cccc(N(C)C(=O)C2C(O)CCN2c2nc(C)cc(C(F)(F)F)c2C#N)c1", "Label Value": "inactive"}
{"Compound": "CC1COCCN1c1cc(-c2ccnn2C)c2ccnc(-c3ccn[nH]3)c2n1 (stereo not given) + Cc1cccc(N(C)C(=O)C2C(O)CCN2c2nc(C)cc(C(F)(F)F)c2C#N)c1", "Label Value": "inactive"}
{"Compound": "C=CC(=O)N1CCN(c2nc(=O)n(-c3c(C)ccnc3C(C)C)c3nc(-c4c(O)cccc4F)c(F)cc23)C(C)C1 (stereo not given) + COC1C(OC(N)=O)C(O)C(Oc2ccc3c(O)c(NC(=O)c4ccc(O)c(CC=C(C)C)c4)c(=O)oc3c2C)OC1(C)C", "Label Value": "inactive"}
{"Compound": "COc1cccc(OCCCN)c1-c1cc(Nc2cnc(C#N)cn2)n[nH]1 + Nc1ccc(C#CCN(C(=O)Cc2ncc(C(F)(F)F)cc2C(F)(F)F)c2ccc(F)cc2)nn1", "Label Value": "active"}
{"Compound": "CC1COCCN1c1cc(-c2ccnn2C)c2ccnc(-c3ccn[nH]3)c2n1 (stereo not given) + COC1C(OC(N)=O)C(O)C(Oc2ccc3c(O)c(NC(=O)c4ccc(O)c(CC=C(C)C)c4)c(=O)oc3c2C)OC1(C)C", "Label Value": "inactive"}
{"Compound": "COc1cccc2c1C(=O)c1c(O)c3c(c(O)c1C2=O)CC(O)(C(=O)CO)CC3OC1CC(N)C(O)C(C)O1 (stereo not given) + Cc1cccc(N(C)C(=O)C2C(O)CCN2c2nc(C)cc(C(F)(F)F)c2C#N)c1", "Label Value": "inactive"}
{"Compound": "CCc1cc2c(N3CCc4c(cc(Cn5ccnc5)cc4-c4cn(C)nc4C(F)(F)F)C3=O)cc(C)nc2c(OC)n1 + Nc1ccc(C#CCN(C(=O)Cc2ncc(C(F)(F)F)cc2C(F)(F)F)c2ccc(F)cc2)nn1", "Label Value": "inactive"}

Here is another compound to look at.
Hi, sorry to bother you, what did the test record for CNCc1ccc(-c2[nH]c3cc(F)cc4c3c2CCNC4=O)cc1 + COC1C(OC(N)=O)C(O)C(Oc2ccc3c(O)c(NC(=O)c4ccc(O)c(CC=C(C)C)c4)c(=O)oc3c2C)OC1(C)C ?
inactive

###

- Tested on: 677734-321-R-J1-PDC complex spheroid viability
- Measurement Description: Anticancer human tumor 677734-321-R-J1-PDC cell line growth inhibition [POLQ];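 note: spheroids exposed to compounds for one week; 100% = vehicle DMSO treated spheroids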
- Condition Set: second compound 1 µM; first compound 0.0316 µM; active compounds read low
So basically: is viability, T/C under 90%? Then true. Not under? Then false.

Look over these answered cases.
{"Compound": "O=C(Nc1ccc(O)c(NS(=O)(=O)c2ccc(F)cc2)c1)c1ccc(-c2ccccc2)cc1 + Cc1cccc(N(C)C(=O)C2C(O)CCN2c2nc(C)cc(C(F)(F)F)c2C#N)c1", "Label Value": "false"}
{"Compound": "C#Cc1c(F)ccc2cc(O)cc(-c3ncc4c(N5CC6CCC(C5)N6)nc(OCC56CCCN5CC(F)C6)nc4c3F)c12 (stereo not given) + Cc1cccc(N(C)C(=O)C2C(O)CCN2c2nc(C)cc(C(F)(F)F)c2C#N)c1", "Label Value": "false"}
{"Compound": "COc1cccc(OCCCN)c1-c1cc(Nc2cnc(C#N)cn2)n[nH]1 + COC1C(OC(N)=O)C(O)C(Oc2ccc3c(O)c(NC(=O)c4ccc(O)c(CC=C(C)C)c4)c(=O)oc3c2C)OC1(C)C", "Label Value": "true"}
{"Compound": "COc1cc2cc(C(=O)CCC(=O)O)sc2cc1OC + Cc1cccc(N(C)C(=O)C2C(O)CCN2c2nc(C)cc(C(F)(F)F)c2C#N)c1", "Label Value": "true"}

Here is another compound to look at.
Say whether its viability, T/C is strictly beneath 90%. Entry: C=CCn1c(=O)c2cnc(Nc3ccc(N4CCN(C)CC4)cc3)nc2n1-c1cccc(C(C)(C)O)n1 + COC1C(OC(N)=O)C(O)C(Oc2ccc3c(O)c(NC(=O)c4ccc(O)c(CC=C(C)C)c4)c(=O)oc3c2C)OC1(C)C
false
